These data points were gathered from ChEMBL document CHEMBL1201862.

System: TK-10
procedure summary: NCI tumour cell line growth inhibition, 48 h
Active and inactive are the calls of the source. Cut-off read from the data, not from the text of the source: active = GI50 up to about 1.1 µM and inactive = higher.
Select the matching outcome among yes (1) for active, no (0) for inactive

Dear all, I need the recorded test outcome for CSc1c(C#N)c(N)n(-c2ccc(C)cc2)c(=O)c1C#N , thank you.
no (0)

Dear all, I need the recorded test outcome for NCC(O)CN.Oc1c(Cl)c(Cl)c(Cl)c(Cl)c1Cl , thank you.
no (0)

Dear all, I need the recorded test outcome for CC(=O)C1(/N=N/c2ccc(S(N)(=O)=O)cc2)CCOC1=O (stereo unspecified) , thank you.
no (0)

Dear all, I need the recorded test outcome for C=C1c2nc3ccccc3n2C=C(c2ccc(Cl)cc2)N1c1ccc(OC)cc1 , thank you.
no (0)

Dear all, I need the recorded test outcome for CCOC(=O)CCc1c(C(=O)OCC)[nH]c(/C=C2/NC(=O)C(C)=C2CC)c1C , thank you.
no (0)

Dear all, I need the recorded test outcome for O=C(CC/C(C/C(=N/O)c1ccc(F)cc1)=N/O)N(Cc1ccccc1)Cc1ccccc1 , thank you.
no (0)

Dear all, I need the recorded test outcome for CCOC(=O)c1nc2ccc(Cl)cc2c2c1CCO2 , thank you.
no (0)

Dear all, I need the recorded test outcome for COc1nc(N=P(c2ccccc2)(c2ccccc2)c2ccccc2)cc(=O)[nH]1 , thank you.
no (0)

Dear all, I need the recorded test outcome for NC(CCCC(N)P(=O)(O)c1ccccc1)P(=O)(O)c1ccccc1 (stereo unspecified) , thank you.
no (0)

Dear all, I need the recorded test outcome for COc1cc(C=O)cc(/C=N/c2ccc(S(N)(=O)=O)cc2)c1O , thank you.
no (0)

Dear all, I need the recorded test outcome for CCN(CC)CCCNc1[nH]c2ccccc2c2nc3ccc(OC)cc3c1-2 , thank you.
no (0)

Dear all, I need the recorded test outcome for O=C1NC(=O)C(C(=O)C(=O)Nc2cc(Cl)ccc2Cl)C(=O)N1 , thank you.
no (0)

Dear all, I need the recorded test outcome for COc1ccc(/C=c2/s/c(=C(\C#N)c3nc4ccccc4[nH]3)n(-c3ccccc3)c2=O)cc1 , thank you.
no (0)

Dear all, I need the recorded test outcome for CC(ON1[C@](C)(c2ccccc2)CC[C@@]1(C)c1ccccc1)c1ccccc1 (stereo partly specified) , thank you.
no (0)

Dear all, I need the recorded test outcome for CC(C)=CCC/C(C)=C/CC/C(C)=C/CC(CO)N(C)CC/C=C(\C)CCC=C(C)C (stereo unspecified) , thank you.
no (0)

Dear all, I need the recorded test outcome for CCOC(=O)C(Cl)(NC(=O)c1c(F)c(F)c(F)c(F)c1F)C(F)(F)F (stereo unspecified) , thank you.
no (0)

Dear all, I need the recorded test outcome for CC(C)(O)/C=C/C(=O)[C@](C)(O)[C@H]1[C@H](O)C[C@@]2(C)[C@@H]3CC=C4[C@@H](C[C@H](O)C(=O)C4(C)C)[C@]3(C)C(=O)C[C@]12C , thank you.
yes (1)

Dear all, I need the recorded test outcome for COC(=O)C1[C@@H](C(=O)OC)C12C=Cc1ccccc1C=C2 (stereo partly specified) , thank you.
no (0)

Dear all, I need the recorded test outcome for O=C(O)CNC(=O)c1cccc2c(=O)c3ccccc3[nH]c12 , thank you.
no (0)

Dear all, I need the recorded test outcome for COC(=O)C(/C(=N/N)C(=O)Nc1cc(Cl)ccc1Cl)c1nc2ccc([N+](=O)[O-])cc2nc1O (stereo unspecified) , thank you.
no (0)

Dear all, I need the recorded test outcome for CN(C)Cc1cc(C(=O)/C=C/c2ccc(F)cc2)cc(CN(C)C)c1O , thank you.
no (0)

Dear all, I need the recorded test outcome for Oc1cc(Cl)cc2cc(Br)cnc12 , thank you.
no (0)

Dear all, I need the recorded test outcome for NC(=O)C(=O)N/N=C(\CC1(O)C(=O)Nc2ccccc21)c1ccc2ccccc2c1 (stereo unspecified) , thank you.
no (0)

Dear all, I need the recorded test outcome for COc1cc(/N=C\N(C)C)c2ncccc2c1 , thank you.
no (0)

Dear all, I need the recorded test outcome for N#Cc1ccccc1C(Cl)(Cl)c1cnccn1 , thank you.
no (0)

Dear all, I need the recorded test outcome for Cc1nc2ccc(C(F)(F)F)cc2nc1Nc1ccc(Cl)c(Cl)c1 , thank you.
no (0)

Dear all, I need the recorded test outcome for COP(=O)(CC(=O)C1OC(OCc2ccccc2)C(OCc2ccccc2)C(OCc2ccccc2)C1OCc1ccccc1)OC (stereo unspecified) , thank you.
no (0)

Dear all, I need the recorded test outcome for O=C(Nc1ccccc1SC(/C=C/NNC1=NN=C(c2ccccc2)C(c2ccccc2)N1)c1ccccc1)c1ccc(Cl)cc1Cl (stereo unspecified) , thank you.
no (0)

Dear all, I need the recorded test outcome for COc1ccc2c(c1)c(=O)c1ccccc1n2/C=C/C(=O)O , thank you.
no (0)

Dear all, I need the recorded test outcome for CC(=O)C(=[N+]=[N-])C(=O)OCCOC(=O)C(=[N+]=[N-])C(C)=O , thank you.
yes (1)

Dear all, I need the recorded test outcome for COC(=O)C#CC(N)=O , thank you.
no (0)

Dear all, I need the recorded test outcome for COc1cc(OC)c(-c2cc(=O)c3c(OC)c(OC)c(OC)c(OC)c3o2)cc1OC , thank you.
no (0)

Dear all, I need the recorded test outcome for C=C1N(C)c2ccc(S(=O)(=O)c3ccc4c(c3)C(C)(C)C(=C)N4C)cc2C1(C)C , thank you.
no (0)

Dear all, I need the recorded test outcome for O=c1c2ccccc2n2n1Cc1ccccc1C2 , thank you.
no (0)

Dear all, I need the recorded test outcome for CC(SC1=CC(=O)c2c(O)ccc(O)c2C1=O)C(=O)O (stereo unspecified) , thank you.
no (0)

Dear all, I need the recorded test outcome for Cc1cccc(C(=O)O)c1CC1NCCC2c3ccccc3NC12 (stereo unspecified) , thank you.
no (0)

Dear all, I need the recorded test outcome for Cc1cccc(NC(=O)C(=O)C2C(=O)NC(=O)NC2=O)c1C , thank you.
no (0)

Dear all, I need the recorded test outcome for COC1/C=C(C)/C=C/C(C)/C=C/C(=O)OC(/C(C)=C/C=C(\C)CNC(=O)[C@H](CO)NC=O)C(C)/C=C/C=C/C(OC)CC/C=C(C)/C=C/C1 (stereo partly specified) , thank you.
yes (1)

Dear all, I need the recorded test outcome for CCn1c(SCC(=O)N/N=C/c2ccccc2)nc2ccccc2c1=O , thank you.
no (0)

Dear all, I need the recorded test outcome for COC(=O)c1c(O)ccc2c1C1(Cc3ccccc3C1=O)C(O)O2 (stereo unspecified) , thank you.
no (0)

Dear all, I need the recorded test outcome for Cc1cc(O)nc(NNC(C#N)c2ccc(O)cc2)n1 (stereo unspecified) , thank you.
no (0)
